# Tested on: MDA-MB-435
# ASSAY PROCEDURE: NCI tumour cell line growth inhibition, 48 h
Active and inactive are the calls of the source. Rule as the data show it: active = GI50 up to about 1.1 µM and inactive = higher.
Thanks in advance; please answer with one of these: active, inactive

Problem: Called result for O=c1c2cc([N+](=O)[O-])ccc2n2n1Cc1ccccc1C2
Solution: inactive

Problem: Queued: Oc1cc(O)c2c(c1)OC(c1ccc(O)c(O)c1)C(OC1(c3cc(O)c(O)c(O)c3)Oc3cc(O)cc(O)c3C(O)C1O)C2 (stereo not given)
Solution: inactive

Problem: Queued: Nc1nc(NNc2ccccc2F)cc(=O)[nH]1
Solution: inactive

Problem: Queued: N=C1/C(=C/c2ccco2)C(=O)N=C2SC=NN12
Solution: inactive

Problem: Queued: COC(=O)Nc1nc2cc(Oc3ccc4nc(NC(=O)OC)[nH]c4c3)ccc2[nH]1
Solution: active
